tested on: MOLT-4; assay: NCI-60 SRB screening (one-dose and five-dose); assay type: cell-based, human; details: MOLT-4, 10 μM, 48 h
Kindly state Growth Percent for each of the entries shown.
Give bare numbers, in %.

compound: C[C@H]1[C@@H]2[C@H]3CC[C@@H]4[C@@]5(C)C/C(=C\c6cccnc6)C(=O)C(C)(C)[C@@H]5CC[C@@]4(C)[C@]3(C)CC[C@]23CO[C@@]1(C)[C@@H](C(=O)/C=C/c1cccnc1)C3 [Compound 6]
Growth Percent, %: 16.72
//
compound: C[C@H]1[C@@H]2[C@H]3CC[C@@H]4[C@@]5(C)CC[C@H](O)C(C)(C)[C@@H]5CC[C@@]4(C)[C@]3(C)CC[C@]23CO[C@@]1(C)C(C(=O)/C=C/c1cccnc1)C3 (stereo partly drawn) [Compound 4]
Growth Percent, %: 25.21
//
compound: COC(=O)[C@]12CC[C@@H](C(C)=O)[C@@H]1[C@H]1CC[C@@H]3[C@@]4(C)C/C(=C\c5cccnc5)C(=O)C(C)(C)[C@@H]4CC[C@@]3(C)[C@]1(C)CC2 [Compound 8]
Growth Percent, %: 5.47

Each compound below has a reported value. Please supply its Growth Percent.
1. COC(=O)[C@]12CC[C@@H](C(=O)/C=C/c3cccnc3)[C@@H]1[C@H]1CC[C@@H]3[C@@]4(C)C/C(=C\c5cccnc5)C(=O)C(C)(C)[C@@H]4CC[C@@]3(C)[C@]1(C)CC2 [Compound 7]
2. CC(=O)O[C@H]1CC[C@]2(C)[C@H]3CC[C@@H]4[C@H]5[C@H](C)[C@@]6(C)OC[C@]5(CC[C@@]4(C)[C@]3(C)CC[C@H]2C1(C)C)CC6C(C)=O (stereo partly drawn) [Compound 1]
3. CC(=O)[C@H]1C[C@]23CC[C@]4(C)[C@H](CC[C@@H]5[C@@]6(C)CCC(=O)C(C)(C)[C@@H]6CC[C@]54C)[C@H]2[C@H](C)[C@@]1(C)OC3 [Compound 2]

−31.34
42.52
100.88

----------
Exercise: state measured Growth Percent for each of the compounds provided.
system: ACHN; experiment: NCI-60 SRB screening (one-dose and five-dose); format: cell-based, human; settings: 10 μM, 48 h
Show the value, then the unit it is measured in.

compound: CC(=O)[C@H]1C[C@]23CC[C@]4(C)[C@H](CC[C@@H]5[C@@]6(C)CCC(=O)C(C)(C)[C@@H]6CC[C@]54C)[C@H]2[C@H](C)[C@@]1(C)OC3
Growth Percent: 99.80%
--
compound: COC(=O)[C@]12CC[C@@H](C(=O)/C=C/c3cccnc3)[C@@H]1[C@H]1CC[C@@H]3[C@@]4(C)C/C(=C\c5cccnc5)C(=O)C(C)(C)[C@@H]4CC[C@@]3(C)[C@]1(C)CC2
Growth Percent: −100.00%
--
compound: C[C@H]1[C@@H]2[C@H]3CC[C@@H]4[C@@]5(C)C/C(=C\c6cccnc6)C(=O)C(C)(C)[C@@H]5CC[C@@]4(C)[C@]3(C)CC[C@]23CO[C@@]1(C)[C@@H](C(=O)/C=C/c1cccnc1)C3
Growth Percent: −22.16%

Working through the 4 compounds below one at a time, give Growth Percent for each.
1. C[C@H]1[C@@H]2[C@H]3CC[C@@H]4[C@@]5(C)CC[C@H](O)C(C)(C)[C@@H]5CC[C@@]4(C)[C@]3(C)CC[C@]23CO[C@@]1(C)C(C(=O)/C=C/c1cccnc1)C3 (stereo partly shown)
2. COC(=O)[C@]12CC[C@@H](C(C)=O)[C@@H]1[C@H]1CC[C@@H]3[C@@]4(C)C/C(=C\c5cccnc5)C(=O)C(C)(C)[C@@H]4CC[C@@]3(C)[C@]1(C)CC2
3. C[C@H]1[C@@H]2[C@H]3CC[C@@H]4[C@@]5(C)CC[C@H](O)C(C)(C)[C@@H]5CC[C@@]4(C)[C@]3(C)CC[C@]23CO[C@@]1(C)[C@@H](C(=O)/C=C/c1ccco1)C3
4. CC(=O)O[C@H]1CC[C@]2(C)[C@H]3CC[C@@H]4[C@H]5[C@H](C)[C@@]6(C)OC[C@]5(CC[C@@]4(C)[C@]3(C)CC[C@H]2C1(C)C)CC6C(C)=O (stereo partly shown)

["41.58%", "32.49%", "44.33%", "86.11%"]

----------
tested on: SR; assay: NCI-60 SRB screening (one-dose and five-dose); assay type: cell-based, human; conditions: 10 μM, 48 h
readout.label: Growth Percent (%)
Give bare numbers, in %.

Example results:
compound: COC(=O)[C@]12CC[C@@H](C(=O)/C=C/c3cccnc3)[C@@H]1[C@H]1CC[C@@H]3[C@@]4(C)C/C(=C\c5cccnc5)C(=O)C(C)(C)[C@@H]4CC[C@@]3(C)[C@]1(C)CC2
readout.label: Growth Percent
numeric.value: −14.07

compound: COC(=O)[C@]12CC[C@@H](C(C)=O)[C@@H]1[C@H]1CC[C@@H]3[C@@]4(C)C/C(=C\c5cccnc5)C(=O)C(C)(C)[C@@H]4CC[C@@]3(C)[C@]1(C)CC2
readout.label: Growth Percent
numeric.value: 12.35

compound: CC(=O)O[C@H]1CC[C@]2(C)[C@H]3CC[C@@H]4[C@H]5[C@H](C)[C@@]6(C)OC[C@]5(CC[C@@]4(C)[C@]3(C)CC[C@H]2C1(C)C)CC6C(C)=O (stereo partly shown)
readout.label: Growth Percent
numeric.value: 62.46

Request body: readout Growth Percent, system SR, query CC(=O)[C@H]1C[C@]23CC[C@]4(C)[C@H](CC[C@@H]5[C@@]6(C)CCC(=O)C(C)(C)[C@@H]6CC[C@]54C)[C@H]2[C@H](C)[C@@]1(C)OC3 . Return the value.
92.32

----------
system: MALME-3M; experiment: NCI-60 SRB screening (one-dose and five-dose); type: cell-based, human; details: 10 μM, 48 h
readout.label: Growth Percent (%)
One number for each entry, in %.

molecule: COC(=O)[C@]12CC[C@@H](C(C)=O)[C@@H]1[C@H]1CC[C@@H]3[C@@]4(C)C/C(=C\c5cccnc5)C(=O)C(C)(C)[C@@H]4CC[C@@]3(C)[C@]1(C)CC2
readout.label: Growth Percent
numeric.value: 29.95
--
molecule: COC(=O)[C@]12CC[C@@H](C(=O)/C=C/c3cccnc3)[C@@H]1[C@H]1CC[C@@H]3[C@@]4(C)C/C(=C\c5cccnc5)C(=O)C(C)(C)[C@@H]4CC[C@@]3(C)[C@]1(C)CC2
readout.label: Growth Percent
numeric.value: −95.19
--
molecule: CC(=O)[C@H]1C[C@]23CC[C@]4(C)[C@H](CC[C@@H]5[C@@]6(C)CCC(=O)C(C)(C)[C@@H]6CC[C@]54C)[C@H]2[C@H](C)[C@@]1(C)OC3
readout.label: Growth Percent
numeric.value: 109.60
--
molecule: C[C@H]1[C@@H]2[C@H]3CC[C@@H]4[C@@]5(C)CC[C@H](O)C(C)(C)[C@@H]5CC[C@@]4(C)[C@]3(C)CC[C@]23CO[C@@]1(C)[C@@H](C(=O)/C=C/c1ccco1)C3
readout.label: Growth Percent
numeric.value: −11.31
--
molecule: CC(=O)O[C@H]1CC[C@]2(C)[C@H]3CC[C@@H]4[C@H]5[C@H](C)[C@@]6(C)OC[C@]5(CC[C@@]4(C)[C@]3(C)CC[C@H]2C1(C)C)CC6C(C)=O (stereo partly shown)
readout.label: Growth Percent
numeric.value: 81.27
--
molecule: C[C@H]1[C@@H]2[C@H]3CC[C@@H]4[C@@]5(C)C/C(=C\c6cccnc6)C(=O)C(C)(C)[C@@H]5CC[C@@]4(C)[C@]3(C)CC[C@]23CO[C@@]1(C)[C@@H](C(=O)/C=C/c1cccnc1)C3
readout.label: Growth Percent
numeric.value: −33.54

Kindly review the next molecule as well.
Fill in: Growth Percent of C[C@H]1[C@@H]2[C@H]3CC[C@@H]4[C@@]5(C)CC[C@H](O)C(C)(C)[C@@H]5CC[C@@]4(C)[C@]3(C)CC[C@]23CO[C@@]1(C)C(C(=O)/C=C/c1cccnc1)C3 (stereo partly shown) is ___
54.41

----------
tested on: HT29; assay: NCI-60 SRB screening (one-dose and five-dose); format: cell-based, human; conditions: HT29, 10 μM, 48 h
readout.label: Growth Percent (%)
Answers are plain numbers, in %.

Worked cases, Growth Percent given:
compound: C[C@H]1[C@@H]2[C@H]3CC[C@@H]4[C@@]5(C)CC[C@H](O)C(C)(C)[C@@H]5CC[C@@]4(C)[C@]3(C)CC[C@]23CO[C@@]1(C)[C@@H](C(=O)/C=C/c1ccco1)C3
Growth Percent [%]: 98.06

compound: C[C@H]1[C@@H]2[C@H]3CC[C@@H]4[C@@]5(C)CC[C@H](O)C(C)(C)[C@@H]5CC[C@@]4(C)[C@]3(C)CC[C@]23CO[C@@]1(C)C(C(=O)/C=C/c1cccnc1)C3 (stereo partly shown)
Growth Percent [%]: 99.49

compound: COC(=O)[C@]12CC[C@@H](C(C)=O)[C@@H]1[C@H]1CC[C@@H]3[C@@]4(C)C/C(=C\c5cccnc5)C(=O)C(C)(C)[C@@H]4CC[C@@]3(C)[C@]1(C)CC2
Growth Percent [%]: 16.53

compound: CC(=O)O[C@H]1CC[C@]2(C)[C@H]3CC[C@@H]4[C@H]5[C@H](C)[C@@]6(C)OC[C@]5(CC[C@@]4(C)[C@]3(C)CC[C@H]2C1(C)C)CC6C(C)=O (stereo partly shown)
Growth Percent [%]: 80.13

compound: C[C@H]1[C@@H]2[C@H]3CC[C@@H]4[C@@]5(C)C/C(=C\c6cccnc6)C(=O)C(C)(C)[C@@H]5CC[C@@]4(C)[C@]3(C)CC[C@]23CO[C@@]1(C)[C@@H](C(=O)/C=C/c1cccnc1)C3
Growth Percent [%]: 26.36

compound: COC(=O)[C@]12CC[C@@H](C(=O)/C=C/c3cccnc3)[C@@H]1[C@H]1CC[C@@H]3[C@@]4(C)C/C(=C\c5cccnc5)C(=O)C(C)(C)[C@@H]4CC[C@@]3(C)[C@]1(C)CC2
Growth Percent [%]: −45.47

Query for HT29: what Growth Percent does the record show for CC(=O)[C@H]1C[C@]23CC[C@]4(C)[C@H](CC[C@@H]5[C@@]6(C)CCC(=O)C(C)(C)[C@@H]6CC[C@]54C)[C@H]2[C@H](C)[C@@]1(C)OC3 ?
108.96
